Where do the numbers come from? From the NIST ThermoML archive (doi:10.1016/j.jct.2011.02.012).

- experiment-summary: activity coefficient (dimensionless); of the first substance listed, at infinite dilution; xn = mol fraction of the nth substance listed
- settings: 348.15 K; Liquid; Chromatography; x1 = 0
Reported activity coefficient by item:
Response field accepts a number only; no unit should be typed.

Answered cases to consult:
Req: Param item = CCCCCC [hexane] + CCn1cc[n+](C)c1.N#C[B-](C#N)(C#N)C#N ; retrieve measured activity coefficient.
Resp: 23.1

Req: Proceed to CC(C)CC(C)(C)C [2,2,4-trimethylpentane] + CCn1cc[n+](C)c1.N#C[B-](C#N)(C#N)C#N
Resp: 39.5

Req: Please do the same for C=CCCC [1-pentene] + CCn1cc[n+](C)c1.N#C[B-](C#N)(C#N)C#N as well.
Resp: 7.71

Req: # repeat for CCCC(C)=O [pentan-2-one] + CCn1cc[n+](C)c1.N#C[B-](C#N)(C#N)C#N
Resp: 0.879

Req: And for COC(C)(C)C [2-methoxy-2-methylpropane] + CCn1cc[n+](C)c1.N#C[B-](C#N)(C#N)C#N ?
Resp: 3.01

Others:
Req: Dear colleague, I am looking for the recorded activity coefficient of the following compound: C1CCCCC1 [cyclohexane] + CCn1cc[n+](C)c1.N#C[B-](C#N)(C#N)C#N
Resp: 11.6

Req: Then what about the compound C=CCCCCC [1-heptene] + CCn1cc[n+](C)c1.N#C[B-](C#N)(C#N)C#N ?
Resp: 16.6
